Value source: paper PMC9159852

assay: Acute toxicity assay against Daphnia magna; details: Daphnia magna, in vivo, pH 7.5
Measurement Label: LC50 at 24 h (µM)
Your answer should be a plain number; it is taken to be in µM.

LC50 at 24 h recorded for this molecule, COc1cccc2c1C(=O)c1c(O)c3c(c(O)c1C2=O)C[C@@](O)(C(=O)CO)C[C@@H]3O[C@H]1C[C@H](N)[C@H](O)[C@H](C)O1 [Doxorubicin, doxorubicin, reference compound] , is 3.3

###

tested on: human leukemia HL-60 cell line; assay: Antiproliferative activity (MTS and Resazurin assays), HL-60; format: cell-based; settings: IC50(MDCK)/IC50(HL-60)
Each entry below carries its reported SI (selectivity index).
# respond with the number and nothing more

Below, 3 compounds whose answers are already recorded.
# Compound, Recorded Measurement
data = [
    ("C=CCNC(=NN=Cc1ccccn1)[S][Cu][O]C(C)=O.C=CCNC(=NN=Cc1ccccn1)[S][Cu][O]C(C)=O.O.O.O.O [compound 4, [Cu2(L)2(CH3COO)2]·4H2O]", 20),
    ("C=CCNC(=NN=Cc1ccccn1)[S][Cu][Br] [compound 3, [Cu(L)Br]]", 62),
    ("C=CCNC(=NN=Cc1ccccn1)[S][Cu][Cl] [compound 2, [Cu(L)Cl]]", 30),
]

SI (selectivity index) recorded for this compound, COc1cccc2c1C(=O)c1c(O)c3c(c(O)c1C2=O)C[C@@](O)(C(=O)CO)C[C@@H]3O[C@H]1C[C@H](N)[C@H](O)[C@H](C)O1 [Doxorubicin, doxorubicin, reference compound] , is 35.5
